# PROTOCOL_DESCRIPTION: NCI Yeast Anticancer Drug Screen. Data for the cln2 rad14 strain (AID 165);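 further: 0% = growth equal to vehicle treated cultures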
# CONDITION_INFO: S. cerevisiae cln2 rad14 strain, at 50.0 µM, active compounds read high
The panel holds about 79,000 compounds, 15% with a hit somewhere; the sample as a whole holds those more often.
MEASUREMENT_LABEL: growth inhibition (%)

[[record]]
compound = "OC(c1cc(-c2ccc(Cl)cc2Cl)nc2ccccc12)C1CCCCN1 (stereo unspecified)"
measurement_label = "growth inhibition"
val = 64.7

[[record]]
compound = "S=C(Nc1cc(Cl)c(Cl)cc1Cl)SCc1ccccc1"
measurement_label = "growth inhibition"
val = 97.8

[[record]]
compound = "CSC(SC)(C(=O)O)c1cc(C)no1"
measurement_label = "growth inhibition"
val = 45.2

[[record]]
compound = "CC(=O)OC(CCl)C(C)[N+](=O)[O-] (stereo unspecified)"
measurement_label = "growth inhibition"
val = 36.9

[[record]]
compound = "C/C=C/c1cc2c(cc1O)CC[C@@H]1[C@@H]2CC[C@]2(C)[C@@H](O)CC[C@@H]12"
measurement_label = "growth inhibition"
val = 92.7

[[record]]
compound = "CCOC(=O)CN1C(=O)S/C(=C/c2ccc([N+](=O)[O-])o2)C1=O"
measurement_label = "growth inhibition"
val = 56.3

[[record]]
compound = "COc1ccc(C2c3cc4c(cc3OC(O)C2C)OCO4)c(OC)c1 (stereo unspecified)"
measurement_label = "growth inhibition"
val = 68.9

[[record]]
compound = "CCN(CC)P(=S)(c1ccccc1CCP(=S)(c1ccccc1)c1ccccc1)N(CC)CC"
measurement_label = "growth inhibition"
val = 96.8

[[record]]
compound = "Cc1c(O)c(Br)c(Br)c(Br)c1Br"
measurement_label = "growth inhibition"
val = 94.7

[[record]]
compound = "O=C1c2ccccc2-c2nnc3c(c21)Cc1ccccc1C3"
measurement_label = "growth inhibition"
val = 40.5

[[record]]
compound = "Cc1ccc2c(-c3ccccc3)c3ccccc3cc2c1C"
measurement_label = "growth inhibition"
val = 14.5


* * *

# PROTOCOL_DESCRIPTION: NCI Yeast Anticancer Drug Screen. Data for the rad50 strain (AID 155);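 further: 0% = growth of vehicle-only cultures of the same strain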
# CONDITION_INFO: S. cerevisiae rad50 strain growth inhibition; at 5.0 µM (retest, dose inferred, filed as 0.5)
# Procedure: Growth inhibition of yeast strains with defined genetic alterations is measured as a screen for potential anti-cancer activity. Selected strains with alterations in DNA damage repair or cell cycle control were exposed to compounds and growth inhibition was measured relative to vehicle treated controls. The strain used in this assay is rad50
Compounds without any hit were thinned out: in the full panel of roughly 79,000, 15% have a hit. Activity calls are given as the source filed them. Cut-off read from the data, not from the text of the source: active = growth inhibition above about 70%; inactive = the rest.
Possible outcomes: active, inactive

[[record]]
compound = "OC(c1ccccc1)(c1ccccc1)C1CCCCC1"
group_label = "inactive"

[[record]]
compound = "O=C1C=C(OCC=C(C(F)(F)F)C(F)(F)F)C(=O)c2ccccc21"
group_label = "inactive"

[[record]]
compound = "C(=C\\c1ccc(-[n+]2nc(-c3ccccc3)nn2-c2ccccc2)cc1)/c1ccccc1"
group_label = "active"

[[record]]
compound = "O=C1C=C(c2ccccc2)OC(c2ccccc2)C1 (configuration not stated)"
group_label = "inactive"

[[record]]
compound = "O=c1oc(-c2ccccc2)nc2ccccc12"
group_label = "inactive"

[[record]]
compound = "CC(C)NC(=O)OCc1c(CO)c2c(n1C)-c1ccccc1CC2"
group_label = "inactive"

[[record]]
compound = "CC(C)[C@H](N)C(=O)NCCNC(=O)[C@@H](N)C(C)C"
group_label = "active"

[[record]]
compound = "COc1c(O)ccc2c1CN1CCc3cc4c(cc3C1C2)OCO4 (configuration not stated)"
group_label = "inactive"

[[record]]
compound = "COc1cc2c(c(C)c1O)[C@H]1COc3ccccc3[C@H]1O2"
group_label = "inactive"

[[record]]
compound = "c1ccc2c(c1)Sc1nccc3ccnc-2c13"
group_label = "active"

[[record]]
compound = "COc1ccc(SSc2ccc(OC)n[n+]2[O-])[n+]([O-])n1"
group_label = "active"

[[record]]
compound = "O=C1OC(c2ccc(O)cc2)Sc2ccccc21 (configuration not stated)"
group_label = "inactive"

